# Test system: Klebsiella pneumonia ATCC 43816
# experiment_notes: Minimal Inhibitory Concentration (MIC) broth dilution assay
# Type: cell-based
# run_parameters: Klebsiella pneumoniae, ATCC43816, 20 h, read-out: MIC Klebsiella pneumoniae ATCC43816
# Procedure: The antibacterial activity of the compounds of the present invention was evaluated against the commonly used quality control strain Escherichia coli ATCC 25922 and the rifampin-resistant mutant strain Klebsiella pneumonia ATCC 43816. […] The in vitro potency of compounds to inhibit Escherichia coli (ATCC 25922) and Klebsiella pneumonia (ATCC 43816) growth was assessed by the MIC (Minimal Inhibitory Concentration) broth dilution method. […]
Assign a class from recorded MIC; defined classes: low band (below 2 µg/mL), middle band (2 µg/mL to below 4 µg/mL), high band (4 µg/mL or more)

molecule: NC1CC(CNCc2cccc(C(=O)Nc3ccc(S(=O)(=O)N4CCN(c5cc(C(F)(F)F)cc(Cl)n5)CC4)cc3)c2)C1 (stereo not shown)
label_class: middle band
--
molecule: NCCCNCc1cccc(C(=O)Nc2ccc(S(=O)(=O)N3CCN(c4cc(C(F)(F)F)cc(Cl)n4)C4CCC43)cc2)c1 (stereo not shown)
label_class: high band
--
molecule: Cc1cc(C(F)(F)F)cc(N2CCN(S(=O)(=O)c3ccc(NC(=O)c4cccc(CNCCCN)c4)cc3)CC2)n1
label_class: middle band
--
molecule: N#Cc1cc(N2CCN(S(=O)(=O)c3ccc(NC(=O)c4ccc(CCNCCCN)cc4)cc3)CC2)nc(C(F)(F)F)c1
label_class: middle band
--
molecule: O=C1NC(CNCc2cccc(C(=O)Nc3ccc(S(=O)(=O)N4CCN(c5cc(C(F)(F)F)cc(Cl)n5)CC4)cc3)c2)CO1 (stereo not shown)
label_class: high band
--
molecule: NC1(C2CCN(Cc3cccc(C(=O)Nc4ccc(S(=O)(=O)N5CCN(c6cc(C(F)(F)F)cc(Cl)n6)CC5)cc4)c3)C2)CC1 (stereo not shown)
label_class: middle band
--
molecule: O=C(Nc1ccc(S(=O)(=O)N2CCN(c3cc(C(F)(F)F)cc(Cl)n3)CC2)cc1)c1ccc(CCNCCCN2CCOCC2)cc1
label_class: middle band
--
molecule: NCCCNCc1cccc(C(=O)Nc2ccc(S(=O)(=O)N3CCN(c4cc(C(F)(F)F)cc(Cl)n4)CC3)c(O)c2)c1
label_class: high band
--
molecule: CC1CN(c2cc(C(F)(F)F)cc(Cl)n2)CCN1S(=O)(=O)c1ccc(NC(=O)c2cccc(CNCCCN)c2)cc1 (stereo not shown)
label_class: high band
--
molecule: NCCCNCc1ccc(C(=O)Nc2ccc(S(=O)(=O)N3CCN(c4cc(Br)cc(Cl)n4)CC3)cc2)cc1
label_class: low band
--
molecule: NCCCNCc1ccc(C(=O)Nc2ccc(S(=O)(=O)N3CCN(c4cc(C(F)(F)F)c(C5CC5)cn4)CC3)cc2)cc1
label_class: high band
--
molecule: N#CN=S(=O)(c1ccc(NC(=O)c2cccc(CCNCCCN)c2)cc1)N1CCN(c2cc(C(F)(F)F)cc(Cl)n2)CC1 (stereo not shown)
label_class: high band
--
molecule: NCCCNCc1ccc(C(=O)Nc2ccc(S(=O)(=O)N3CCN(c4cc(C(F)(F)F)cc(Cl)n4)CC3)cn2)cc1
label_class: middle band
--
molecule: CCOc1cc(C(F)(F)F)cc(N2CCN(S(=O)(=O)c3ccc(NC(=O)c4ccc(CNCCCN)cc4)cc3)CC2)n1
label_class: high band
--
molecule: NC1CC12CCN(CCc1ccc(C(=O)Nc3ccc(S(=O)(=O)N4CCN(c5cc(C(F)(F)F)cc(Cl)n5)CC4)cc3)cc1)C2 (stereo not shown)
label_class: middle band
--
molecule: N[C@@H]1CCN(c2cccc(C(=O)Nc3ccc(S(=O)(=O)N4CCN(c5cc(C(F)(F)F)cc(Cl)n5)CC4)cc3)c2)C1
label_class: low band
--
molecule: CC(=O)Oc1ccc(C(=O)N2CCc3cc(S(=O)(=O)N4CCN(c5cc(C(F)(F)F)cc(Cl)n5)CC4)ccc32)cc1OC(C)=O
label_class: middle band
--
molecule: NCCCN1CCCC1c1cccc(C(=O)Nc2ccc(S(=O)(=O)N3CCN(c4cc(C(F)(F)F)cc(Cl)n4)CC3)cc2)c1 (stereo not shown)
label_class: low band
--
molecule: O=C(Nc1ccc(S(=O)(=O)N2CCN(c3cc(C(F)(F)F)cc(Cl)n3)CC2)cc1)c1cccc(OCC2CNC2)c1
label_class: low band
--
molecule: CC(F)(F)c1cc(Cl)nc(N2CCN(S(=O)(=O)c3ccc(NC(=O)c4ccc(CCNCCCN)cc4)cc3)CC2)c1
label_class: low band
--
molecule: NCCCN1CCN(c2cccc(C(=O)Nc3ccc(S(=O)(=O)N4CCN(c5cc(C(F)(F)F)cc(Cl)n5)CC4)cc3)c2)CC1
label_class: middle band
--
molecule: NCCCNCc1ccc(C(=O)Nc2ccc(S(=O)(=O)N3CCN(c4cc(C(F)(F)F)cc(Cl)n4)CC3)cc2)cc1
label_class: low band
--
molecule: COc1ccc(CNCCCC2CCNCC2)cc1C(=O)Nc1ccc(S(=O)(=O)N2CCN(c3cc(C(F)(F)F)cc(Cl)n3)CC2)cc1
label_class: middle band
--
molecule: O=C(Nc1ccc(S(=O)(=O)N2CCN(c3cc(C(F)(F)F)cc(Cl)n3)CC2)cc1)c1cccc(N2CC3CC2CN3)c1 (stereo not shown)
label_class: middle band
--
molecule: NCCCOc1ccc(C(=O)Nc2ccc(S(=O)(=O)N3CCN(c4cc(C(F)(F)F)cc(Cl)n4)CC3)cc2)cc1OCCCN
label_class: low band
